Just for reference, paper PMC9858449 is where these values come from.

- Test system: HepG-2 cells
- TEST PROTOCOL: MTT cytotoxicity assay, HepG-2
- Assay type: cell-based
- SETTINGS: Homo sapiens, HepG2, 48 h, read-out: In vitro Cytotoxicity IC50 HepG-2
QUANTITY MEASURED: IC50 (µM)
Give a bare numeral; the unit µM is implied.

So what's the measured IC50 for this one? Cc1ccc(NC(=S)NNC(=O)c2nnn(Cc3nc4ccccc4[nH]3)c2C)cc1 [Compound 5f]
72.7

So what's the measured IC50 for this one? Cc1c(C(=O)N/N=C/c2ccc(N(C)C)cc2)nnn1Cc1nc2ccccc2[nH]1 [Compound 6f]
18.3

So what's the measured IC50 for this one? Cc1c(C(=O)NNC(=O)Nc2ccccc2)nnn1Cc1nc2ccccc2[nH]1 [Compound 5h]
42.1

So what's the measured IC50 for this one? Cc1c(C(=O)NNC(=S)Nc2ccccc2)nnn1Cc1nc2ccccc2[nH]1 [Compound 5d]
57.2
